The reported numbers originate from PubChem BioAssay (NCATS).

assay: qHTS profiling of the MIPE4 collection as inhibitors of Plasmodium falciparum (DD2) proliferation (AID 743345); details: P. falciparum Dd2 in erythrocytes, SYBR Green DNA, 72 h; at 28.5 µM (top of the series) unless noted
For each entry below, report its parasite growth remaining, % of DMSO control (lower = more inhibition) value.
Numbers only, in %.

Example entries and their recorded answers appear below.
molecule | reported
C[C@@H](Cc1cc2c(c(C(N)=O)c1)N(CCCO)CC2)NCCOc1ccccc1OCC(F)(F)F | 84
CC1(C)[C@H](O[C@H]2O[C@H](C(=O)O)[C@@H](O)[C@H](O)[C@H]2O[C@@H]2O[C@H](C(=O)O)[C@@H](O)[C@H](O)[C@H]2O)CC[C@@]2(C)[C@H]1CC[C@]1(C)[C@H]2C(=O)C=C2[C@H]3C[C@@](C)(C(=O)O)CC[C@]3(C)CC[C@]21C | 97.4
OCCN1C[C@H](O)[C@@H](O)[C@H](O)[C@@H]1CO | 131
CCCCCCCCCCCC(CC1OC(=O)C1CCCCCC)OC(=O)C(CC(C)C)NC=O (stereo unspecified) | 13.8
c1cncc(CN2CCC(n3ncc4c(N5CCOCC5)nc(-c5ccc6[nH]ccc6c5)nc43)CC2)c1 | 6.76

Record parasite growth remaining, % of DMSO control (lower = more inhibition) for all entries; do not skip any.
1. COc1cc([C@@H]2c3cc4c(cc3[C@@H](O[C@@H]3O[C@@H]5CO[C@@H](c6cccs6)O[C@@H]5[C@H](O)[C@@H]3O)[C@H]3COC(=O)[C@H]23)OCO4)cc(OC)c1O
2. CCCCOc1ccc(C(=O)Nc2ccc(F)cc2F)cc1

Result ::
1: 8.04; 2: 95.7

Record parasite growth remaining, % of DMSO control (lower = more inhibition) for all entries; do not skip any.
1. N#CNC(=NCCCCCCOc1ccc(Cl)cc1)Nc1ccncc1
2. Nc1nc(N)c2nc(-c3cccc(O)c3)c(-c3cccc(O)c3)nc2n1

Result ::
[35.9, 10.5]

Record parasite growth remaining, % of DMSO control (lower = more inhibition) for all entries; do not skip any.
1. Cc1ccccc1C(=O)Nc1ccc(C(=O)N2CCCC(O)c3cc(Cl)ccc32)c(C)c1 (stereo unspecified)
2. C[C@]12CC[C@@H]3c4ccc(O)cc4CC[C@H]3[C@H]1CC[C@H]2O
3. CC(C=CC=C(C)C=CC1=C(C)CCCC1(C)C)=CC=CC=C(C)C=CC=C(C)C=CC1=C(C)CCCC1(C)C

Result ::
[75.6, 93.3, 92.7]

###

experiment: Quantitative High-Throughput drug screen in 47 multiple myeloma cell lines against the NCATS MIPE library collection: OCIMY7_PLB cell viability assay (AID 1918987); conditions: OCI-MY7 myeloma viability, CellTiter-Glo ATP, 48 h; note: nearly all actives have a fitted effect of over 65% in size
Records with an inconclusive call do not appear. Active and inactive are the calls of the source. Calls come from the whole dose curve; as a rule, active = well fitted cell-killing curve with a large enough effect; inconclusive = small, poorly fitted or top-dose-only effect, or effect the other way; inactive = no such curve, though single readings can be large or run the other way.
Assign a class; possible classes are TRUE (active), FALSE (inactive)

molecule | class.assignment
COc1ccc(S(=O)(=O)Nc2cc(-c3c(O)ccc4ccccc34)c(O)c3ccccc23)cc1 | TRUE
CN[C@H]1[C@@H](O)[C@@H]2O[C@@H]3O[C@H](C)CC(=O)[C@]3(O)O[C@@H]2[C@@H](NC)[C@H]1O | TRUE
NC(=O)N1CCC(CC(=O)N2CCC([C@H]3c4ncc(Br)cc4CCc4cc(Cl)cc(Br)c43)CC2)CC1 | TRUE

Query :: How was `C[C@H](NC(=O)C(C#N)=Cc1cccc(Br)n1)c1ccccc1` classified in this test?
Result :: TRUE

Query :: Next: `CC(=O)N1CCN(c2ccc(OCc3nn(C)c(C)c3-c3cccc4c(CCCOc5cccc6ccccc56)c(C(=O)O)n(Cc5cccnc5)c34)cc2)CC1`
Result :: TRUE

Query :: Next: `CCS(=O)(=O)Nc1ccc2[nH]c(O)c(C(=Nc3ccc(CN4CCCCC4)cc3)c3ccccc3)c2c1`
Result :: TRUE

Query :: Next: `O=c1c(O)c(-c2ccc(O)c(O)c2)oc2cc(O)ccc12`
Result :: TRUE

###

Assay: qHTS Screen of the MIPE 4.0 Collection Against Ewings Sarcoma (EW8) (AID 1259255); note: nearly all actives have a fitted effect of over 35% in size;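 for viability: 100% = DMSO-treated cells and 0% = medium-only wells without cells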
Details: EW8 Ewing sarcoma viability, CellTiter-Glo, 48 h; series mostly up to 45.8 µM
Procedure: There is a large unmet medical need for treatments for Ewing sarcoma, a pediatric sarcoma. […] Using the NCATS developed oncology compound library called the Mechanism of Interrogation Plate (MIPE), four Ewing sarcoma cell lines were evaluated (TC32, TC71, RDES, EW8). Compounds, in a 12-point titration series, were incubated with cells for 48 hours and the read out was cell viability (CellTiter-Glo from Promega). […]
Inconclusive results are not listed. Activity calls are given as the source filed them. The call rests on the fitted dose curve; in most records, active means well fitted inhibition curve with a large enough effect; inconclusive means small, poorly fitted or top-dose-only effect; inactive means no such curve, though single readings can be large or run the other way.
Assign a class; possible classes are 1 for active, 0 for inactive

Query :: How was `O=C(c1ccc(F)cc1)N1CCC[C@H](c2nc(-c3ccc(F)cc3)no2)C1` classified in this test?
Result :: 0

Query :: Next: `CC(=O)N1CCN(c2ccc(OCc3nn(C)c(C)c3-c3cccc4c(CCCOc5cccc6ccccc56)c(C(=O)O)n(Cc5cccnc5)c34)cc2)CC1`
Result :: 1

Query :: Next: `CCc1cc(C(C)=NOCc2ccc(C3CCCCC3)c(C(F)(F)F)c2)ccc1CN1CC(C(=O)O)C1`
Result :: 0

Query :: Next: `CCN(CC)CCCCNc1ncc2c(n1)N(C)C(=O)N(c1c(Cl)c(OC)cc(OC)c1Cl)C2`
Result :: 1

Query :: Next: `O=C1c2cccc(O)c2C(=O)c2c(O)cc(CO)cc21`
Result :: 0

Query :: Next: `Cn1cc(-c2ccc3ncc(Cc4ccc5ncccc5c4)n3n2)cn1`
Result :: 0

Query :: Next: `CCCCC(=O)O[C@]1(C(=O)CO)[C@@H](C)C[C@H]2[C@@H]3CCC4=CC(=O)C=C[C@]4(C)[C@@]3(F)[C@@H](O)C[C@@]21C`
Result :: 0

Query :: Next: `O=C(C[C@@H]1CC=CCCC(=O)O[C@H](c2ccccc2)CNC1=O)NCc1ccc(Cl)cc1`
Result :: 0

Query :: Next: `CC1(C)[C@H](O[C@H]2O[C@H](C(=O)O)[C@@H](O)[C@H](O)[C@H]2O[C@@H]2O[C@H](C(=O)O)[C@@H](O)[C@H](O)[C@H]2O)CC[C@@]2(C)[C@H]1CC[C@]1(C)[C@H]2C(=O)C=C2[C@H]3C[C@@](C)(C(=O)O)CC[C@]3(C)CC[C@]21C`
Result :: 0

Query :: Next: C[C@@H]1CC[C@@]2(OC1)OC1CC3C4CC=C5CC(O)CCC5(C)C4CCC3(C)C1[C@@H]2C (some centres undefined)
Result :: 0

Query :: Next: `CO[C@@H]1[C@@H](O)[C@H](O)[C@@H](n2c3c(Cl)cccc3c3c4c(c5c6cccc(Cl)c6[nH]c5c32)C(=O)NC4=O)O[C@@H]1CO`
Result :: 1

Query :: Next: `OC[C@@H](O)[C@@H](O)[C@H](O)[C@@H](O)CO`
Result :: 0

Query :: Next: `O=c1ccn([C@@H]2O[C@H](CO)[C@H](O)[C@@H]2F)c(=O)[nH]1`
Result :: 1

Query :: Next: `Cc1cnn(C)c1C(=O)Nc1cc(Nc2ccc3c(C=Cc4ccccn4)n[nH]c3c2)ccc1F`
Result :: 1

Query :: Next: `Cn1cc(-c2cnn3c(N)c(Br)c([C@H]4CCCNC4)nc23)cn1`
Result :: 1

Query :: Next: `O=C(O)C(=O)Nc1cccc(C2=NN=N[N]2)c1`
Result :: 0

Query :: Next: `O=C1NCCc2[nH]c(-c3ccncc3)cc21`
Result :: 1

Query :: Next: `C[C@@H](NCc1cc2ccccc2[nH]1)c1cccc2ccccc12`
Result :: 0

Query :: Next: `COc1cc(CCc2cc(NC(=O)c3ccc(N4C[C@@H](C)N[C@@H](C)C4)cc3)n[nH]2)cc(OC)c1`
Result :: 1

###

assay: Quantitative High-Throughput drug screen in 47 multiple myeloma cell lines against the NCATS MIPE library collection: UTMC2_PLB cell viability assay (AID 1919868); conditions: CellTiter-Glo ATP luminescence, 48 h; note: nearly all actives have a fitted effect of over 55% in size
Records with an inconclusive call do not appear. Calls of active or inactive are those of the source. Calls follow the shape of the dose curve; as a rule, active = well fitted cell-killing curve with a large enough effect; inconclusive = small, poorly fitted or top-dose-only effect, or effect the other way; inactive = no such curve, though single readings can be large or run the other way.
Assign a class; possible classes are active, inactive

compound | class.assignment
CN1CCc2c(c3ccccc3n2Cc2ccc(C(=O)NO)cc2)C1 | active
O=C1NCCc2[nH]c(-c3ccncc3)cc21 | active
O=C(C=CC=Cc1ccc2c(c1)OCO2)N1CCCCC1 | inactive

Query :: How was `CN(C)c1ccc(C(=O)NCCCCCCC(=O)NO)cc1` classified in this test?
Result :: active

Query :: Next: COc1cccc2c1C(=O)c1c(O)c3c(c(O)c1C2=O)C[C@@](O)(C(=O)CO)C[C@@H]3O[C@H]1C[C@H](N)[C@H](OC2CCCCO2)[C@H](C)O1 (stereo not given in full)
Result :: active
